The entries below come with measured AntiCD3/CD28 (CD69+ CD4 T cells) repeat 1 values attached.
- SUBJECT_OF_TEST: chimeric BTLA of humanised-BTLA mice (human extracellular region, murine transmembrane and signaling … (human; mouse, UniProt Q7TSA3 184-306, limits assumed)
- Sequence (Q7TSA3 other isoform, or with tags, fused parts or gaps mutant limits assumed): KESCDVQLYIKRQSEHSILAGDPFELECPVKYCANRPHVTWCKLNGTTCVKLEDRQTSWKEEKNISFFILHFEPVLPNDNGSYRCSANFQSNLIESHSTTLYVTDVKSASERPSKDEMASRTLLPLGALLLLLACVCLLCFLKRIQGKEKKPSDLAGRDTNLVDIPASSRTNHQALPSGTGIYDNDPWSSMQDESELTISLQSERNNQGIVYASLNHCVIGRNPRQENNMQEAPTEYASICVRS
- ASSAY_NAME: cell-based or functional assay; further: test concentration or dose not given here
State the answer as a number, implicitly in % inhibition.

Example entries begin here.
{"columns": ["BINDER", "ENDPOINT_UNIT", "RESULT_VALUE"],
 "data": [
  ["26B1 (antibody, IgG1, V domains shown, mIgG1) VH: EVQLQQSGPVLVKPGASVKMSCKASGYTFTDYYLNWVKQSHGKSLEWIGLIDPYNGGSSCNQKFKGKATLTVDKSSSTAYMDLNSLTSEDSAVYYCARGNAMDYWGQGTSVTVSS VL: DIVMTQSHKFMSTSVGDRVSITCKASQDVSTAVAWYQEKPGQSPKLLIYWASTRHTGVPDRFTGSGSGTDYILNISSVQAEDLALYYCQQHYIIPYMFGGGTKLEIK", "% inhibition", 35],
  ["3A9 (antibody, IgG1, V domains shown, mIgG1) VH: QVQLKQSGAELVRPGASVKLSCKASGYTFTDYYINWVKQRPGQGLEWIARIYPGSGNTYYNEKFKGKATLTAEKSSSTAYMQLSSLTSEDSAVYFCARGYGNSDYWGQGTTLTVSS VL: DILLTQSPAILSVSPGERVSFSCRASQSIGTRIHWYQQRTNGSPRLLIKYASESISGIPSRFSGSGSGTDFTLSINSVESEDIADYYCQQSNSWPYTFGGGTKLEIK", "% inhibition", 22],
  ["21C7 (antibody, IgG1, V domains shown, mIgG1) VH: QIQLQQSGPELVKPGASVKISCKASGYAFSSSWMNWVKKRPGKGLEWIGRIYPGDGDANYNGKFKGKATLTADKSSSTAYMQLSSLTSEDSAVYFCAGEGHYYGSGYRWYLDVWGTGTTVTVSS VL: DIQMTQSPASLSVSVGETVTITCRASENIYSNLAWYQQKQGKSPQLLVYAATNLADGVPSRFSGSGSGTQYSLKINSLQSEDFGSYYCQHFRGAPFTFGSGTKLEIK", "% inhibition", 39]
]}

Task: I have this binder here, 6.2 (antibody, IgG1, V domains shown, mIgG1; also called clone 6.2; parent clone 6.2) VH: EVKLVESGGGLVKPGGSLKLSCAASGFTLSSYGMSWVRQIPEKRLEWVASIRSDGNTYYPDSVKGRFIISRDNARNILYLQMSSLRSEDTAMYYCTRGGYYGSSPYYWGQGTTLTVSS VL: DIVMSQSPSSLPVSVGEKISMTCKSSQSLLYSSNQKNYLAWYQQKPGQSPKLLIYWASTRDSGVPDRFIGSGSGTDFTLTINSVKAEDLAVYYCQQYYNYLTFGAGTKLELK , and I need its recorded AntiCD3/CD28 (CD69+ CD4 T cells) repeat 1.
Result: 53

Task: Next entry: 831 (antibody, IgG1, V domains shown) VH: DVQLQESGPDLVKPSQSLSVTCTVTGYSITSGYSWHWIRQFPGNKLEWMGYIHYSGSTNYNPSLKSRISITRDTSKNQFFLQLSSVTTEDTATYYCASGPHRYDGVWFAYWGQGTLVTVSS VL: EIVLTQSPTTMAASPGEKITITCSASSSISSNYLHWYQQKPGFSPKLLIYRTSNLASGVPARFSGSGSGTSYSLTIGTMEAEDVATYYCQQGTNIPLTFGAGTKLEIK
Result: 50

Task: Next entry: 16H2 (antibody, IgG1, V domains shown, mIgG1) VH: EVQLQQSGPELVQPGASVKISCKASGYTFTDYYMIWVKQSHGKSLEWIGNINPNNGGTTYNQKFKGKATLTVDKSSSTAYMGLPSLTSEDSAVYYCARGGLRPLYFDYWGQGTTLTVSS VL: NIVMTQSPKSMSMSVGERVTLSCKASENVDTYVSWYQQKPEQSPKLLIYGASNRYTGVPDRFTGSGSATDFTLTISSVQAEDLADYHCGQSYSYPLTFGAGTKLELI
Result: 51

Task: Next entry: 12F11 (antibody, IgG1, V domains shown, mIgG1) VH: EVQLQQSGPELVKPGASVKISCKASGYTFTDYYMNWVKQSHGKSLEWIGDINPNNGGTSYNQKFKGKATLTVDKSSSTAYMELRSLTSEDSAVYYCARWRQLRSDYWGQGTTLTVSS VL: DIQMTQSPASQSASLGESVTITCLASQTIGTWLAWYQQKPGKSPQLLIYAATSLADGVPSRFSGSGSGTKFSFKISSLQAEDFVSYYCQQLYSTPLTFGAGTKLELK
Result: 30

Task: Next entry: 11.5.1 (antibody, V domains shown, mouse IgG1k hybridoma antibody) VH: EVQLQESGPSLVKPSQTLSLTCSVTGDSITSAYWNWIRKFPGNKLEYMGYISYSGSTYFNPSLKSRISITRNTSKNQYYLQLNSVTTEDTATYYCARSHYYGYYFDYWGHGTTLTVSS VL: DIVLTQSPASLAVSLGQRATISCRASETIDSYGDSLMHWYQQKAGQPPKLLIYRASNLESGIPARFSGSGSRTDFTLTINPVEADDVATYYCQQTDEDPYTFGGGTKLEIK
Result: 50

Task: Next entry: 4H4 (antibody, IgG1, V domains shown, mIgG1) VH: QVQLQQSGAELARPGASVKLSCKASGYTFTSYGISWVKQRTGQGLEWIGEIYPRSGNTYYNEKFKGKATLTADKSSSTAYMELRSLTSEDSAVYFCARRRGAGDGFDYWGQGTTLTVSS VL: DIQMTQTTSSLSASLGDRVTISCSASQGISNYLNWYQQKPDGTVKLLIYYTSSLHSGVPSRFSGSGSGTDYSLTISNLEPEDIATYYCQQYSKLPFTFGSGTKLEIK
Result: 43

Task: Next entry: 7A1 (antibody, IgG1, V domains shown, mIgG1) VH: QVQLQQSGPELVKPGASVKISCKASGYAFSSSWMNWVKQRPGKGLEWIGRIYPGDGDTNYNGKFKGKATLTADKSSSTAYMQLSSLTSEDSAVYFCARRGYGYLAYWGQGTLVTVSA VL: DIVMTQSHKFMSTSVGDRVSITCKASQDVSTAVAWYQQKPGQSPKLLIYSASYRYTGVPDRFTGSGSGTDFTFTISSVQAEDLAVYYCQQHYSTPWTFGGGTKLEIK
Result: 28
